pIC50, EGFR (Homo sapiens), per-entry values.
pIC50: −log10 of the molar value.

{"Molecule": "COc1ccc(F)cc1C(=O)NCc1ccc(-c2nn(C3CCCC(O)C3)c3ncnc(N)c23)cc1 (single isomer, unassigned) [Example 5]", "pIC50": "7.00 to 7.30"}
{"Molecule": "COc1ccc(F)cc1C(=O)NCc1ccc(-c2nn([C@H]3CC[C@@H](CO)CC3)c3ncnc(N)c23)cc1 [Example 55]", "pIC50": "7.30 to 8.00"}
{"Molecule": "COc1ccc(F)cc1C(=O)NCc1ccc(-c2nn([C@H]3CC[C@H](CO)CC3)c3ncnc(N)c23)cc1 [Example 56]", "pIC50": "7.30 to 8.00"}
{"Molecule": "COc1ccc(F)cc1C(=O)NCc1ccc(-c2nn(C3CCCC(O)C3)c3ncnc(N)c23)cc1 (single isomer, unassigned) [Example 8]", "pIC50": "6.00 to 7.00"}
{"Molecule": "COc1ccc(F)cc1C(=O)NCc1ccc(-c2nn(C3CCCC(O)C3)c3ncnc(N)c23)cc1 (single isomer, unassigned) [Example 7]", "pIC50": "6.00 to 7.00"}
{"Molecule": "COc1ccc(F)cc1C(=O)NCc1ccc(-c2nn(C3CCCC(O)C3)c3ncnc(N)c23)cc1 (centres unmarked) [Example 4]", "pIC50": "6.00 to 7.00"}
{"Molecule": "COc1ccc(F)cc1C(=O)NCc1ccc(-c2nn(C3CCCC(O)C3)c3ncnc(N)c23)cc1 (single isomer, unassigned) [Example 6]", "pIC50": "7.00 to 7.30"}
{"Molecule": "COc1ccc(F)cc1C(=O)NCc1ccc(-c2nn(C3CCC(O)C3)c3ncnc(N)c23)cc1 (single isomer, unassigned) [Example 33]", "pIC50": "7.00 to 7.30"}
{"Molecule": "COc1ccc(F)cc1C(=O)NCc1ccc(-c2nn([C@H]3CC[C@@H](O)CC3)c3ncnc(N)c23)cc1 [Example 30]", "pIC50": "7.00 to 7.30"}
{"Molecule": "COc1ccc(F)cc1C(=O)NCc1ccc(-c2nn(C3CCC(O)C3)c3ncnc(N)c23)cc1 (single isomer, unassigned) [Example 34]", "pIC50": "7.00 to 7.30"}
{"Molecule": "COc1ccc(F)cc1C(=O)NCc1ccc(-c2nc(C3CCCC(O)C3)n3ccnc(N)c23)cc1 (single isomer, unassigned) [Example 22]", "pIC50": "7.30 to 8.00"}

* * *

# Tgt: BTK C481S kinase (Homo sapiens, UniProt Q06187, C481S)
# Construct: purchased Carna 08-547
# Sequence (Q06187 whole entry C481S): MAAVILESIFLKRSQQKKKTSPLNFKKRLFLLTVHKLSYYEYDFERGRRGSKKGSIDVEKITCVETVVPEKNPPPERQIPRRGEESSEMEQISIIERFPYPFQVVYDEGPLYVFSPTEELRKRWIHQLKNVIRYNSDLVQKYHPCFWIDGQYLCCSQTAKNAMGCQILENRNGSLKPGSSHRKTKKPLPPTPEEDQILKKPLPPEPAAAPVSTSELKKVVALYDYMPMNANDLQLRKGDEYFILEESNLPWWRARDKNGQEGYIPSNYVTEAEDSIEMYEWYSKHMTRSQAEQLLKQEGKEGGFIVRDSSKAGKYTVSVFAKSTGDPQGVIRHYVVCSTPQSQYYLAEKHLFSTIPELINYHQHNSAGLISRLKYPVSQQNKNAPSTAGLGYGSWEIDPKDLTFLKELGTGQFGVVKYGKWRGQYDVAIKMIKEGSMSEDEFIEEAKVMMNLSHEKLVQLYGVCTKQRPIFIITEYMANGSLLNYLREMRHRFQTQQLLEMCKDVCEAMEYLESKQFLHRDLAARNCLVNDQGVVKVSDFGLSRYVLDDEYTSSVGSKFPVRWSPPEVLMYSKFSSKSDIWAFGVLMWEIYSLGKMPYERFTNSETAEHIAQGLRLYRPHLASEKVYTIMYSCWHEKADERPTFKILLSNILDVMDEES
# Test details: HTRF kinase activity inhibition assay, BTK C481S
# Format: biochemical
# Settings: HTRF TK kit
pIC50: −log10 of the molar value.

{"Molecule": "COc1ccc(F)cc1C(=O)NCc1ccc(-c2cc(C3CCC(CO)OC3)n3ncnc(N)c23)cc1 (single isomer, unassigned) [Example 59]", "Tgt": "BTK C481S kinase (Homo sapiens, UniProt Q06187, C481S)", "pIC50": "7.30 to 8.00"}
{"Molecule": "COc1ccc(F)cc1C(=O)NCc1ccc(-c2nc(C3CCCC(O)C3)n3ccnc(N)c23)cc1 (single isomer, unassigned) [Example 22]", "Tgt": "BTK C481S kinase (Homo sapiens, UniProt Q06187, C481S)", "pIC50": "≥ 8.00"}
{"Molecule": "COc1ccc(F)cc1C(=O)NCc1ccc(-c2nn(C3CCCC(O)C3)c3ncnc(N)c23)cc1 (single isomer, unassigned) [Example 7]", "Tgt": "BTK C481S kinase (Homo sapiens, UniProt Q06187, C481S)", "pIC50": "≥ 8.00"}
{"Molecule": "COc1ccc(F)cc1C(=O)NCc1ccc(-c2nn(C3CCC(O)C3)c3ncnc(N)c23)cc1 (single isomer, unassigned) [Example 31]", "Tgt": "BTK C481S kinase (Homo sapiens, UniProt Q06187, C481S)", "pIC50": "≥ 8.00"}
{"Molecule": "COc1ccc(F)cc1C(=O)NCc1ccc(-c2nn(C3CCCC(O)C3)c3ncnc(N)c23)cc1 (single isomer, unassigned) [Example 6]", "Tgt": "BTK C481S kinase (Homo sapiens, UniProt Q06187, C481S)", "pIC50": "≥ 8.00"}
{"Molecule": "COc1ccc(F)cc1C(=O)NCc1ccc(-c2nn(C3CCCC(O)C3)c3ncnc(N)c23)cc1 (single isomer, unassigned) [Example 5]", "Tgt": "BTK C481S kinase (Homo sapiens, UniProt Q06187, C481S)", "pIC50": "≥ 8.00"}
